# ASSAY INFO: Cytotoxicity evaluation in luciferase replicon cells (Cell Titer 96 AQueous One)
# Assay type: cell-based, human
# CONDITION: human; Table 1B, cellular viability
Measured CC50 at 72 h, listed per entry.
ENDPOINT NAME: CC50 at 72 h

COC(=O)N[C@H](C(=O)N1CCC[C@H]1c1ncc(-c2ccc(-c3cc4sc(-c5ccc6[nH]c([C@@H]7CCCN7C(=O)[C@H](NC(=O)OC)c7ccccc7)nc6c5)cc4s3)cc2)[nH]1)C(C)C: > 75 µM
COC(=O)N[C@H](C(=O)N1CCCC1c1ncc(-c2cc3sc(-c4ccc(-c5cnc([C@@H]6CCCN6C(=O)[C@H](NC(=O)OC)c6ccccc6)[nH]5)cc4)cc3s2)[nH]1)C(C)C (stereo partly drawn): > 75 µM
COC(=O)N[C@H](C(=O)N1CCC[C@H]1c1ncc(-c2ccc(-c3csc4c(-c5cnc([C@@H]6CCCN6C(=O)[C@H](NC(=O)OC(C)(C)C)c6ccccc6)[nH]5)csc34)cc2)[nH]1)C(C)C: > 75 µM
